B1: CPXM2 (parent)
chain: TASTKNCMVGYDMGATRCDFTLSK

# Variants of: B1
# test.protocol: protein stability index of a GFP-peptide fusion (GPS, HEK-293T) (PSI 1-6); higher = more stable;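 also: lentivirally expressed fusions sorted by FACS into six bins by GFP to DsRed ratio, PSI derived from sequencing read proportions per bin multiplied by bin number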
# assay.context: c terminus: a fixed tail appended
Record 1 whenever protein stability index is at 3 or higher; record -1 when lower.

[[record]]
polymer_sequence = "TASTKNCMVGYDMGATRCDFGLSK [T21G]"
cat = -1


Threshold query (protein stability index >= 3) on TASTKNCMVGYDHGATRCDFTLSK [M13H]
-1

For TASTKNCMVGYDMGATRCDFTNSK [L22N] then?
1

Then what about the variant TDSTKNCMVGYDMGATRCDFTLSK [A2D] ?
1

Input TASTHNCMVGYDMGATRCDFTLSK [K5H]
-1

Would you mind doing TASTKNCMVGYDMQATRCDFTLSK [G14Q] as well?
-1

Same for TASTKNCMVGYDMGATACDFTLSK [R17A]
1

Follow-up item: TASTKNCMVGYDMGRTRCDFTLSK [A15R]
-1

And then TASTKTCMVGYDMGATRCDFTLSK [N6T] , what is it?
1

TASTKNCMAGYDMGATRCDFTLSK [V9A] , same question.
-1

What do you get for TASTKNCMVGYDMGATRCDFTLSP [K24P] ?
-1

Do the same for TAMTKNCMVGYDMGATRCDFTLSK [S3M] please
-1

// repeat for TASTKNCMVGYDMGCTRCDFTLSK [A15C] and report
-1

Entry to check: TASTKNCMDGYDMGATRCDFTLSK [V9D]
1

Please answer likewise for TASTKNCMVGYDMGATRCDFTTSK [L22T]
1

What about TASAKNCMVGYDMGATRCDFTLSK [T4A] ?
-1

Quick one: TASTKNCMVGYDMCATRCDFTLSK [G14C]
-1
